Value source: patent US8859620B2

target: P99 (class C β-lactamase) (Enterobacter cloacae, UniProt P05364); assay: β-Lactamase assay (nitrocefin colour change), P99; details: nitrocefin 100 μM, 10 nM enzyme, 5 min pre-incubation; read-out: IC50s P99
Sequence (P05364 21-381): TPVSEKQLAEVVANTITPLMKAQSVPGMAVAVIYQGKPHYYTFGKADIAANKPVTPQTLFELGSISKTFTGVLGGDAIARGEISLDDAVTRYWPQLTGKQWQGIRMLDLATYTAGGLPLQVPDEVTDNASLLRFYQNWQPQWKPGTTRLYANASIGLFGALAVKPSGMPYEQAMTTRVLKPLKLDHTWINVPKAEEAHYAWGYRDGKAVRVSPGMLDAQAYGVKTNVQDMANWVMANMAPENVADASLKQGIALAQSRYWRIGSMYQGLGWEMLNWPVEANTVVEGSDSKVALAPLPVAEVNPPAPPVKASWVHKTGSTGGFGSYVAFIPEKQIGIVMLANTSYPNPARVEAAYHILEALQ
Label Criterion met when IC50 is strictly below 10 µM; at or above that, label Criterion not met.

Molecule	Class assignment
CCCCCCCCOc1ccc(NC(=O)c2c(Br)c(Br)c(Br)c(Br)c2C(=O)O)cc1	Criterion met
CCCCCCCCOc1ccc(NC(=O)c2c(Br)c(Br)c(Br)c(Br)c2C(=O)O)cn1	Criterion met
O=C(O)c1c(Br)c(Br)c(Br)c(Br)c1C(=O)Nc1ccc(OCc2cccc(OC(F)(F)F)c2)c(Cl)c1	Criterion met
CCCCCCCCOc1ccc(NC(=O)c2c(Cl)c(Cl)c(Cl)c(Cl)c2C(=O)O)cn1	Criterion not met
CCCCCCCCCCCCCCCCOc1ccc(NC(=O)c2c(Br)c(Br)c(Br)c(Br)c2C(=O)O)cc1	Criterion met
O=C(O)c1c(Cl)c(Cl)c(Cl)c(Cl)c1C(=O)Nc1ccc(OCc2cccc(OC(F)(F)F)c2)c(Cl)c1	Criterion not met
O=C(O)c1c(Cl)c(Cl)c(Cl)c(Cl)c1C(=O)Nc1ccc(Oc2cc(C(F)(F)F)cc(C(F)(F)F)c2)cc1	Criterion not met
Cc1ccccc1COc1ccc(NC(=O)c2c(Br)c(Br)c(Br)c(Br)c2C(=O)O)cc1Cl	Criterion not met
CCCCCCCCCCCCCCCCOc1ccc(NC(=O)c2c(F)c(F)c(F)c(F)c2C(=O)O)cc1	Criterion met
CC(Oc1ccc(NC(=O)c2c(Br)c(Br)c(Br)c(Br)c2C(=O)O)cc1Cl)c1ccccc1 (stereo not drawn)	Criterion not met
O=C(O)c1c(Cl)c(Cl)c(Cl)c(Cl)c1C(=O)Nc1ccc(OCc2cccc(C(F)(F)F)c2)c(Cl)c1	Criterion not met
O=C(O)c1c(Br)c(Br)c(Br)c(Br)c1C(=O)Nc1ccc(Oc2cc(C(F)(F)F)cc(C(F)(F)F)c2)cc1	Criterion not met
O=C(O)c1c(Cl)c(Cl)c(Cl)c(Cl)c1C(=O)Nc1ccc(OCc2ccccc2)c(Cl)c1	Criterion not met
O=C(O)c1c(Br)c(Br)c(Br)c(Br)c1C(=O)Nc1ccc(OCc2cccc(C(F)(F)F)c2)c(Cl)c1	Criterion met

###

Notes on MIC obtained with Escherichia coli ATCC 29194.

Test smiles	MIC [µg/mL]
O=C(O)c1c(Br)c(Br)c(Br)c(Br)c1C(=O)Nc1ccc(OCc2ccccc2)c(Cl)c1	400
CCCCCCCCOc1ccc(NC(=O)c2c(Br)c(Br)c(Br)c(Br)c2C(=O)O)cc1	400
O=C(O)c1c(Cl)c(Cl)c(Cl)c(Cl)c1C(=O)Nc1ccc(OCc2ccccc2)c(Cl)c1	400
CCCCCCCCOc1ccc(NC(=O)c2c(Cl)c(Cl)c(Cl)c(Cl)c2C(=O)O)cc1	200

###

system: methicillin-resistant strains of S. aureus; experiment: MIC against methicillin-resistant S. aureus (Table 15); assay type: cell-based; conditions: Staphylococcus aureus, dissolved in 100% DMSO, diluted into Mueller Hinton II Broth to final 16 μg/mL
Measurement type: MIC (µg/mL)

Compound	Observed measurement
CCCCCCCCOc1ccc(NC(=O)c2c(Cl)c(Cl)c(Cl)c(Cl)c2C(=O)O)cn1 [Compound 345]	16
O=C(O)c1c(Cl)c(Cl)c(Cl)c(Cl)c1C(=O)Nc1ccc(Oc2cc(C(F)(F)F)cc(C(F)(F)F)c2)cc1 [Compound 413]	16
CCCCCCCCOc1ccc(NC(=O)c2c(Br)c(Br)c(Br)c(Br)c2C(=O)O)cn1 [Compound 346]	8
O=C(O)c1c(Br)c(Br)c(Br)c(Br)c1C(=O)Nc1ccc(OCc2cccc(OC(F)(F)F)c2)c(Cl)c1 [Compound 420]	4
O=C(O)c1c(Br)c(Br)c(Br)c(Br)c1C(=O)Nc1ccc(OCc2cccc(C(F)(F)F)c2)c(Cl)c1 [Compound 390]	8
CCCCCCCCOc1ccc(NC(=O)c2c(Br)c(Br)c(Br)c(Br)c2C(=O)O)cc1Cl [Compound 303]	4
Cc1ccccc1COc1ccc(NC(=O)c2c(Br)c(Br)c(Br)c(Br)c2C(=O)O)cc1Cl [Compound 386]	16
CCCCCCCCOc1ccc(NC(=O)c2c(Cl)c(Cl)c(Cl)c(Cl)c2C(=O)O)cc1Cl [Compound 302]	4
O=C(O)c1c(Br)c(Br)c(Br)c(Br)c1C(=O)Nc1ccc(Oc2cc(C(F)(F)F)cc(C(F)(F)F)c2)cc1 [Compound 414]	4
CCCCCCCCOc1ccc(NC(=O)c2ccccc2C(=O)O)cc1Cl [Compound 300]	16
O=C(O)c1c(Cl)c(Cl)c(Cl)c(Cl)c1C(=O)Nc1ccc(OCc2cccc(OC(F)(F)F)c2)c(Cl)c1 [Compound 419]	8
